# tested-target: UniProt Q9H422
# Sequence (Q9H422 whole entry, looked up): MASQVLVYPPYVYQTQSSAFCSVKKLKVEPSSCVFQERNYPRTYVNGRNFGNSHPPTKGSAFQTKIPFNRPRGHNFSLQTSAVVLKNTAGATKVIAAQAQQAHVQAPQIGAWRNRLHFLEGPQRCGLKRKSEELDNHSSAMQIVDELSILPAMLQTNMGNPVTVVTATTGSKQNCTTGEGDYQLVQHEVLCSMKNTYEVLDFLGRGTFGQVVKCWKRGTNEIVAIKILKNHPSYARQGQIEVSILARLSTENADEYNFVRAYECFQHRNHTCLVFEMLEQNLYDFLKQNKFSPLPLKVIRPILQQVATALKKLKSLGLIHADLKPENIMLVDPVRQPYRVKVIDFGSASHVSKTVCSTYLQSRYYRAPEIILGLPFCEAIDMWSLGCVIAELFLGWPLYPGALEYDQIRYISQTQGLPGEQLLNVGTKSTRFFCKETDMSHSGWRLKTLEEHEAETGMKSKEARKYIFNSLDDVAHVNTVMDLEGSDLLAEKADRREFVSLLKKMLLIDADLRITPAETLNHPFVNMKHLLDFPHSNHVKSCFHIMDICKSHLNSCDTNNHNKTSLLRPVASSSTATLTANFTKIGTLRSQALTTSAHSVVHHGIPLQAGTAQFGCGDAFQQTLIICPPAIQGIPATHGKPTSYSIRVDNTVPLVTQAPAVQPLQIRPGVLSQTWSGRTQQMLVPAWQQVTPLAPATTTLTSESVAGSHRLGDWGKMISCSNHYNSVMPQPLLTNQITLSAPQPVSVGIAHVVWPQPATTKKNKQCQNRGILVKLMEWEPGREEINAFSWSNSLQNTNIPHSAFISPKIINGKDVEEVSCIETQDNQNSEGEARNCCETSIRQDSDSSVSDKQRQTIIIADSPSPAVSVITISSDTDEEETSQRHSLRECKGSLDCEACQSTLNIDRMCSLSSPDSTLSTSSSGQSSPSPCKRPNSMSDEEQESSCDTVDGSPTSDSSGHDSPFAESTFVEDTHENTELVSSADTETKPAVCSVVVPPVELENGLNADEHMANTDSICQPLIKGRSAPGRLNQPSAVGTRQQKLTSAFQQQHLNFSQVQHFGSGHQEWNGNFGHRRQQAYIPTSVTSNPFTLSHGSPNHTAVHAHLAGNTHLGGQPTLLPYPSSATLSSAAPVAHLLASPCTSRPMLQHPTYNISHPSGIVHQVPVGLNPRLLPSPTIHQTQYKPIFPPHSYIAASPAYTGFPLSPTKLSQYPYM
# experiment-summary: KINOMEscan competition binding
# measurement-setup: compound 10.0 µM
Can you tell me kinase still bound, per cent of control for the items I'm about to list?
Give bare numbers, in %.

Example compounds with recorded kinase still bound, per cent of control:
{"compound": "Cc1cn(-c2cc(C(=O)Nc3ccc(C)c(NC(=O)c4ccno4)c3)cc(C(F)(F)F)c2)cn1", "kinase still bound, per cent of control (%)": 100}
{"compound": "N#C/C(=C1/Nc2ccccc2S1)c1ccnc(NCCc2cccnc2)n1", "kinase still bound, per cent of control (%)": 0.25}
{"compound": "CNC(=O)Nc1ccc(-c2nc(N3CC4CCC(C3)O4)c3cnn(C4CCC5(CC4)OCCO5)c3n2)cc1", "kinase still bound, per cent of control (%)": 42}
{"compound": "N#Cc1cc(-c2ccnc(Nc3ccc(-n4cnc(-c5cccnc5)n4)cc3)n2)cc(N2CCOCC2)c1", "kinase still bound, per cent of control (%)": 5.5}
{"compound": "CCN(CCO)CCCOc1ccc2c(Nc3cc(CC(=O)Nc4cccc(F)c4)[nH]n3)ncnc2c1", "kinase still bound, per cent of control (%)": 29}
{"compound": "CC1=C(C(=O)Nc2cc3cn[nH]c3cc2F)C(c2ccc(C(F)(F)F)cc2)CC(=O)N1 (centres undefined)", "kinase still bound, per cent of control (%)": 85}
{"compound": "CC(=O)c1c(C)c2cnc(Nc3ccc(N4CCNCC4)cn3)nc2n(C2CCCC2)c1=O", "kinase still bound, per cent of control (%)": 2.1}
{"compound": "COc1cc2c(Nc3ccc(NC(=O)c4ccccc4)cc3)ncnc2cc1OCCCN1CCOCC1", "kinase still bound, per cent of control (%)": 52}

Would you kindly look at the next entry?
Query: Give the measured kinase still bound, per cent of control of CCOc1cc(N2CCC(O)CC2)ccc1Nc1ncc2c(n1)N(C)c1ccccc1C(=O)N2C .
Response: 100
